Assay: NCI Yeast Anticancer Drug Screen. Data for the mec2-1 strain (AID 157)
Conditions: S. cerevisiae mec2-1 strain, at 50.0 µM, hits give high values
The panel holds about 79,000 compounds, 15% with a hit somewhere; the sample as a whole holds those more often.
READOUT LABEL: growth inhibition (%)

>>> value_observed("O=C(Oc1ccc(-c2ccc([N+](=O)[O-])cc2)cc1)c1ccccc1")
3.9
>>> value_observed("c1ccc(-c2c(-c3ccc4c(c3)OCO4)c(-c3ccc4c(c3)OCO4)c(-c3ccccc3)c3ccccc23)cc1")
20.6
>>> value_observed("OCC1OC(n2cnc3c([Se]Cc4ccccn4)ncnc32)C(O)C1O (centres undefined)")
-0.6
>>> value_observed("CC(=O)OC1CC2CCCCC2CC1[N+](C)(C)C (centres undefined)")
7.3
>>> value_observed("COc1cc(-c2c(C)c(C)nc(OC)c2C#N)cc(OC)c1OC")
-13.9
>>> value_observed("O=C(Nc1cc(NC(=O)n2nnc3ccccc32)c(Br)cc1Br)n1nnc2ccccc21")
25
>>> value_observed("Cc1cc(C(=O)O)cc(C)c1N(C)Cc1cnc2nc(N)nc(N)c2n1")
-11.8
>>> value_observed("CN(/N=C/C=N/N(C)C1=NCCCCN1)C1=NCCCCN1")
-11.3
>>> value_observed("COc1cc(/C=C/c2cc(/C=C/c3ccc(O)c(OC)c3)c([N+](=O)[O-])cc2[N+](=O)[O-])ccc1O")
23.8
>>> value_observed("CCOC(=O)NC(Nc1ccc(Cl)cn1)(C(F)(F)F)C(F)(F)F")
-12.5
>>> value_observed("CC(C)(C)c1ccc(OCCOCCOc2ccc(C(C)(C)C)cc2S(N)(=O)=O)c(S(N)(=O)=O)c1")
-23.3
>>> value_observed("O=[N+]([O-])c1ccc(Nc2ccccc2)c2nonc12")
4.45
>>> value_observed("O=[N+]([O-])c1cccc(N=Cc2ccc(Cl)cc2)c1")
-17.8
>>> value_observed("CCC(=O)OCC(C)COC(=O)CC")
11.8

----------
Let's look at some compounds and their measured growth inhibition.
Experiment: NCI Yeast Anticancer Drug Screen. Data for the mec2-1 strain (AID 157)
Details: S. cerevisiae mec2-1 strain, at 50.0 µM, hits give high values
Compounds without any hit were thinned out: in the full panel of roughly 79,000, 15% have a hit.
READOUT LABEL: growth inhibition (%)

>>> value_observed("CC1=NN(c2nc(N)nc(CN3CCOCC3)n2)C(C)(C)C1")
3.5
>>> value_observed("CN(C)c1nnnn1-c1c(N)n(C)c(=O)n(C)c1=O")
-23.2
>>> value_observed("COc1ccc(/C(=N\\NC(=O)C(N)=O)C(c2ccc(OC)cc2)C2(O)C(=O)Nc3c(Cl)cccc32)cc1 (stereo unspecified)")
-15.4
>>> value_observed("O=C(Nc1cccc2ccccc12)c1ccc(Cl)c(Cl)c1")
53.4
>>> value_observed("Cc1cccc2c(NCCC[N+](C)(C)[O-])c3c([N+](=O)[O-])ccc(C)c3nc12")
-14.3
>>> value_observed("CCCCCCNc1ncnc2c1cnn2C")
6.85
>>> value_observed("O=S(Cc1ccccc1)c1ccccc1Cn1cccc1 (stereo unspecified)")
-39.6
>>> value_observed("C=CCOc1ccc(S(=O)(=O)c2ccc(OCC=C)cc2)cc1")
-7.9
>>> value_observed("S=C(Cc1cccc2ccccc12)N1CCN(c2ccc(Cl)cc2)CC1")
-2.3
>>> value_observed("CC(=O)OC1CN(c2ccccc2)CC(OC(C)=O)CN(c2ccccc2)C1 (stereo unspecified)")
3.95
>>> value_observed("Cc1cccc(Cl)c1NC(=O)c1ccc(C(=O)Nc2c(C)cccc2Cl)cc1")
-17.1
>>> value_observed("CCN(CC)CCN(C(=Nc1ccccc1)N1CCCCC1)c1ccccc1")
-35.2
>>> value_observed("C[N+](C)(C)CCC(=O)CC[N+](C)(C)C")
-2.2
>>> value_observed("CC(O)(C#Cc1ccccc1)c1nc2ccccc2s1 (stereo unspecified)")
-5
>>> value_observed("Cc1nc2ccc(S(=O)(=O)Nc3ccccn3)cc2c(=O)n1NS(=O)(=O)c1ccccn1")
12.1
>>> value_observed("Cc1cc(=O)[nH]c(=O)n1CCCN(C)CCCn1c(C)cc(=O)[nH]c1=O")
-2.35
>>> value_observed("O=S(=O)(O)C(Cc1nc2ccccc2[nH]1)S(=O)(=O)OCCC1S(=O)(=O)OCCOS1(=O)=O (stereo unspecified)")
-0.4
>>> value_observed("Cc1ccc(Cl)cc1N")
31.1
>>> value_observed("ClCCOC(CCl)OCCCl")
6.9
>>> value_observed("COc1ccc(I)cc1")
-15.8
>>> value_observed("Cc1cc2c(cc1C)NS(=O)(=O)N2")
10.4

----------
Assay: NCI Yeast Anticancer Drug Screen. Data for the rad50 strain (AID 155);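 note: 0% = growth of vehicle-only cultures of the same strain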
Details: S. cerevisiae rad50 strain growth inhibition; at 50.0 µM; hits give high values
The panel holds about 79,000 compounds, 15% with a hit somewhere; the sample as a whole holds those more often. Active and inactive are the calls of the source. Rule as the data show it: active = growth inhibition above about 70%; inactive = the rest.
Each record here notes measured growth inhibition.
READOUT LABEL: growth inhibition

>>> value_observed("Clc1cccc(CC(Br)Br)c1")
"14.8% (inactive)"
>>> value_observed("O=S(=O)(c1ccccc1)n1c2c(c3ccccc31)Cc1ccccc1-2")
"-3.75% (inactive)"
>>> value_observed("COC(=O)C1C2OC(C(Br)C2Br)C1C(=O)OC (stereo not drawn)")
"-12.1% (inactive)"

----------
Test: NCI Yeast Anticancer Drug Screen. Data for the sgs1 mgt1 strain (AID 161);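 note: 0% = growth of cultures given vehicle only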
Settings: S. cerevisiae sgs1 mgt1 strain, at 50.0 µM, hits give high values
About 79,000 compounds went through this panel and 15% of them were active in at least one assay; those are over-represented in the sample as a whole.
Recorded measurements of growth inhibition, one per entry
READOUT LABEL: growth inhibition (%)

>>> value_observed("CCO[C@H]1OC(=O)[C@@H]2C(c3ccc([N+](=O)[O-])cc3)=NO[C@H]12")
-12.9
>>> value_observed("NNC(=O)CCC(=O)Nc1ccc(Cl)cc1Cl")
-8.25
>>> value_observed("ON=C1CCCCC1")
-1.45
>>> value_observed("Cc1cc(Cl)ccc1NC(N)=O")
5.15
>>> value_observed("O=C(O)CSc1ccccc1")
17.8
>>> value_observed("O=C(OCCO)c1ccccc1O")
-34
>>> value_observed("CCC(=O)N1CCN(C(=O)CC)CC1")
-5.25
>>> value_observed("CC(=O)OCC1OC(n2cc(CBr)nn2)C(OC(C)=O)C(OC(C)=O)C1OC(C)=O (configuration not stated)")
-24.1
>>> value_observed("C=C1CN(C2=NCCO2)C1")
-5.65
>>> value_observed("CC(=O)CC(C)(C)c1cc(CC(C)(C)C(N)=O)on1")
17.4
>>> value_observed("O=C(NCCCCCCNC(=O)OCCSCCn1cc(C(=O)NC(=O)OCc2ccccc2)c(=O)[nH]c1=O)OCCSCCn1cc(C(=O)NC(=O)OCc2ccccc2)c(=O)[nH]c1=O")
2.6
>>> value_observed("O=C(NC(=S)Nc1ccc(Cl)c(Cl)c1)c1cccc([N+](=O)[O-])c1")
10.9

----------
Assay: NCI Yeast Anticancer Drug Screen. Data for the rad50 strain (AID 155);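 note: 0% = growth of vehicle-only cultures of the same strain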
Conditions: S. cerevisiae rad50 strain growth inhibition; at 50.0 µM; hits give high values
This is part of a sample that, as a whole, favours compounds with a hit. Of some 79,000 tested, about 15% had one in any assay.
READOUT LABEL: growth inhibition (%)

>>> value_observed("COc1cc(CNc2nc3ccccc3nc2C(=O)O)cc(OC)c1OC")
10.3
>>> value_observed("COc1cc(/C=C(\\C#N)c2ccccc2)cc(OC)c1")
43.8
>>> value_observed("O=S(Cc1ccccc1)c1ccccc1Cn1cccc1 (stereo not given)")
-32.8
>>> value_observed("O=C1NC(=O)C(c2ccc(Cl)cc2)(c2cccc(Cl)c2)N1 (stereo not given)")
11.1
>>> value_observed("CCN(CC)c1ccc(NC(=O)CCl)cc1")
-3.95
>>> value_observed("CC(C)(C)C(O)CC(O)(C(F)(F)F)C(F)(F)F (stereo not given)")
-2.45
>>> value_observed("CC1=CC(C)(C)N=C2SC(=O)c3nc4ccccc4c(=O)n3N12")
10.7
>>> value_observed("O=C(O)C1CCCN1/N=C/c1cccc([N+](=O)[O-])c1 (stereo not given)")
-11.1
>>> value_observed("O=C(CNc1ccccn1)Nn1cnc2ccc(S(=O)(=O)Nc3ccccn3)cc2c1=O")
32.2
>>> value_observed("C=CCOC(=O)Nc1ccc(S(=O)(=O)N2CCCCC2)cc1")
9
>>> value_observed("CC1(C)OB(O)OC1(C)C")
-10.4
>>> value_observed("CC(C)(C)C1CCC2c3c([nH]c4ccccc34)C3C(=O)N(c4ccccc4[N+](=O)[O-])C(=O)C3C2C1 (stereo not given)")
-16.9
>>> value_observed("O=c1nc(NO)cnn1C1OC(CO)C(O)C1O (stereo not given)")
13.7
>>> value_observed("C/C(=C\\C(=O)c1ccccc1)c1ccccc1")
17.3
>>> value_observed("COC1(OC)C(Cl)=C(Cl)C2C1C1(Cl)C(Cl)=C(Cl)C2(Cl)C1(OC)OC (stereo not given)")
39.9
>>> value_observed("O=C1c2cc3c(cc2C(=O)c2[nH]c(=O)ccc21)CCCC3")
11.5
>>> value_observed("CCC1C(=O)N(C)c2ccccc21 (stereo not given)")
-2.15
>>> value_observed("S=C1Nc2ccccc2C2CC=NN12 (stereo not given)")
-1.75
>>> value_observed("CC(C)C(=O)CC(c1ccc(Cl)cc1)N1N=C(C(C)C)CC1c1ccc(Cl)cc1 (stereo not given)")
8.05
>>> value_observed("OC(Cc1cccnc1)(c1ccccc1)c1cccc2ccccc12 (stereo not given)")
12.3
>>> value_observed("NC1CCCCC1N.O=S(=O)([O-])CCCNC1CCCCC1.O=S(=O)([O-])CCCNC1CCCCC1.[Pt+4]")
-6.3
>>> value_observed("ClC1(Cl)CC1c1ccccc1 (stereo not given)")
0.1
>>> value_observed("O=C(NC1CCCCC1)C1C2CC3OC(=O)C1C3C2 (stereo not given)")
-10.8
>>> value_observed("CC1=CCC2(C#N)CCC1C2O (stereo not given)")
15.2
>>> value_observed("Oc1ccc(Br)cc1CNC1CCCCC1")
58.5
